Assay: Protein binding in plasma by HSA-HPLC method
Type: ADME, cell-free
Conditions: human, read-out: PB (converted)
Entries annotated with measured fraction unbound

SMILES_REPR | fraction unbound
Cc1cn(Cc2ccc(Cl)cc2Cl)c2c(-c3nnc(NS(=O)(=O)c4cc(Cl)c(Cl)s4)o3)cc(F)cc12 | 0.002
Cc1cn(Cc2ccc(Cl)cc2Cl)c2c(-c3nnc(NS(=O)(=O)c4cc(F)c(F)cc4F)o3)cc(F)cc12 | 0.006
Cc1cn(Cc2ccc(Cl)cc2Cl)c2c(-c3cc(NS(=O)(=O)c4ccc(F)c(F)c4)no3)cc(F)cc12 | 0.016

// fraction unbound lookup, key: Cc1cn(Cc2ccc(Cl)cc2Cl)c2c(-c3nnc(NS(=O)(=O)c4ccc(Cl)c(Cl)c4)o3)cc(F)cc12
0.028

The measurements presented in this section are drawn from ChEMBL document CHEMBL1154363.
